Reference source: patent US20260116991A1

Target: biotinylated labeled human GPC3 protein (produced in-house) (human, UniProt P51654 25-559, limits assumed, biotinylated (Dojindo, Cat. No. LK03); sites not stated)
Test: ELISA, biotinylated human GPC3 protein
Recorded OD450 at 0.02 nM for the following binders
The response must be a number in OD450 with no trailing unit.

Below, each entry is followed by its recorded OD450 at 0.02 nM result.
stdin: Dear colleague, please send me the reported OD450 at 0.02 nM for hAb005LH1L1b (antibody, human IgG1, V domains shown, Humanized F3.54.12; VH H1 + VL L1b; expressed as human IgG1) VH: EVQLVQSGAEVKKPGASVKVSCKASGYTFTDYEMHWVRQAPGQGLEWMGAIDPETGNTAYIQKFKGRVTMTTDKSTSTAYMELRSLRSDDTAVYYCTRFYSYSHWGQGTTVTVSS VL: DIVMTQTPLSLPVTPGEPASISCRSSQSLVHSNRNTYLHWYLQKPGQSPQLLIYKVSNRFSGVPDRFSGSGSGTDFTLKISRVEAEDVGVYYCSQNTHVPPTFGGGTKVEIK when you can.
stdout: 0.45

stdin: Dear colleague, please send me the reported OD450 at 0.02 nM for hAb001H1L1 (antibody, human IgG1, V domains shown, Humanized F2.169.2; VH H1 + VL L1; expressed as human IgG1) VH: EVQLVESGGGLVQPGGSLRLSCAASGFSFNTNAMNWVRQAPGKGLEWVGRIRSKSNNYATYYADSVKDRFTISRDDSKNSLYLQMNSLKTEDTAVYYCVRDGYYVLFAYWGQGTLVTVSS VL: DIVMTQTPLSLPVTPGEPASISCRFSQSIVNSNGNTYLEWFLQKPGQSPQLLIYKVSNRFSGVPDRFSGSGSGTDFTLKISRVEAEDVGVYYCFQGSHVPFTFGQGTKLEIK when you can.
stdout: 0.926

Now look at this one.
stdin: Dear colleague, please send me the reported OD450 at 0.02 nM for hAb006LH1L1 (antibody, human IgG1, V domains shown, Humanized F3.38.7; VH H1 + VL L1; expressed as human IgG1) VH: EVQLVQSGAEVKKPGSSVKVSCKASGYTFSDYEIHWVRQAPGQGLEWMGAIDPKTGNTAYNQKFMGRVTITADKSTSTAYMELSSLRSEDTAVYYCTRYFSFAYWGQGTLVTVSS VL: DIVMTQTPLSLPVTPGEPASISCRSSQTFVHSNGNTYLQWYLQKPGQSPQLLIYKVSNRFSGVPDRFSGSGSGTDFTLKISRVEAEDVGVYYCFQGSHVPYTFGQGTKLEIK when you can.
stdout: 1.05
